# Tested on: A2780
# Assay notes: Cellular proliferation assay (Alamar blue), A2780
# Assay type: cell-based
# Recorded conditions: Homo sapiens, 10% FCS, 72 hours with compound, Alamar blue 24 h, read-out: A2780 (cellular proliferation assay, Table 4) (converted)
Endpoint label: IC50

Sample records with IC50:
CN1CCCNC(=O)[C@H](CO)NCc2cc(cc(N3CCOCC3)c2)Nc2nccc(n2)-c2ccc(cc2)C1 [Compound 10] = > 10 µM
CN1CCC(NC(=O)c2ccc3cc2CN2CCC[C@H]2C(=O)NCc2cccc(c2)-c2ccnc(n2)N3)CC1 [Compound 47] = 3.72 µM
COc1ccc2cc1CN(C)CCCNC(=O)C1CCN(CC1)Cc1cc(cc(NC(C)C)c1)Nc1nccc-2n1 [Compound 70] = > 10 µM

Please turn your attention to the following entry.
Here CC(C)Nc1cc2cc(c1)Nc1nccc(n1)-c1ccc(cc1)CN(C)CCCNC(=O)CN1CCN(CC1)C2 [Compound 131] was tested on A2780, and its IC50 came to > 10 µM
